System: human hepatitis B virus
method_summary: 2.2.15 cells (Hep G2 transfected with HBV genomic DNA), extracellular HBV DNA dot-blot after 10 day treatment
Format: cell-based
test_parameters: Hepatitis B virus, HepG2, 240 h, read-out: IC50 μM
observation_type: IC50 (µM)
Unit µM implied. Number only.

# return recorded IC50 for entry Nc1ccn([C@H]2CC[C@@H](CO)O2)c(=O)n1 [ddC, 2′,3′-dideoxycytidine]
2.2
